# protocolSummary: Probe fluorescence ratio response to arachidonic acid relative to ADIFAB2
# Type: binding
# conditionsUsed: arachidonic acid; response relative to ADIFAB2
Reported DR/DR AA is given for each of the following molecules.
propertyMeasured: DR/DR AA

* 18I 31Y 72A (protein, listed as Rattus norvegicus, PEPTIDE (1)...(131) wild-type rat intestinal fatty acid binding protein) AFDGTWKVDRNENYEKFIEKMGINVVKRKLYAHDNLKLTITQEGNKFTVKESSNFRNIDVVFELGVDFAYSAADGTELTGTWTMEGNKLVGKFKRVDNGKELIAVREISGNELIQTYTYEGVEAKRIFKKE | 2.205
* 117N, 72A (protein, listed as Rattus norvegicus, PEPTIDE (1)...(131) wild-type rat intestinal fatty acid binding protein) AFDGTWKVDRNENYEKFMEKMGINVVKRKLGAHDNLKLTITQEGNKFTVKESSNFRNIDVVFELGVDFAYSAADGTELTGTWTMEGNKLVGKFKRVDNGKELIAVREISGNELIQTNTYEGVEAKRIFKKE | 1.33
* 21W 78F 72A (protein, listed as Rattus norvegicus, PEPTIDE (1)...(131) wild-type rat intestinal fatty acid binding protein) AFDGTWKVDRNENYEKFMEKWGINVVKRKLGAHDNLKLTITQEGNKFTVKESSNFRNIDVVFELGVDFAYSAADGTEFTGTWTMEGNKLVGKFKRVDNGKELIAVREISGNELIQTYTYEGVEAKRIFKKE | 4.264
